Readings of growth for the listed molecules
- System: OVCAR-8 ovarian
- protocol: NCI-60 one-dose screen, 48 h (100 = growth as untreated, 0 = no growth, -100 = all killed)
- recorded.conditions: 10 µM unless noted
About 83,000 compounds went through this panel and 20% of them were active in at least one assay; those are over-represented in the sample as a whole.
State just the number; it will be interpreted in %.

Below, each entry is followed by its recorded growth result.
query.smiles: C/C(=C\c1ccc2ccccc2c1)[N+](=O)[O-]
unit.of.measure: %
growth: 11.7
//
query.smiles: O=S(=O)(O)CCI
unit.of.measure: %
growth: 113
//
query.smiles: CCCCCCCCC/C(=N\NC(=O)c1ccncc1)c1ccc(O)c(O)c1O
unit.of.measure: %
growth: 13.8
//
query.smiles: N#Cc1c2ncccc2c2nnc3cc(Cl)c(Cl)cc3n12
unit.of.measure: %
growth: 87.6
//
query.smiles: CN1CCN(Cc2ccc(NC(=O)c3cncc(C#Cc4c(N)ncc5ccc(F)cc45)c3)cc2C(F)(F)F)CC1
unit.of.measure: %
growth: 53.8
//
query.smiles: CCCCCc1ccnc(CC(=O)c2ccc(OC)cc2)c1
unit.of.measure: %
growth: 86.1

## Input Give growth for this entry on OVCAR-8 ovarian: COc1cc2oc(-c3ccc(NC(=O)c4ccccc4)cc3)cc(=O)c2c(OC)c1OC
## Output 77.9

## Input Give growth for this entry on OVCAR-8 ovarian: COc1ccc(CN2C(=O)/C(=C\C(=O)c3ccc(OCCN4CCCC4)cc3)c3ccccc32)cc1
## Output 86.5

## Input Give growth for this entry on OVCAR-8 ovarian: COc1ccccc1Cn1cc2c(c1)-c1oncc1CC2
## Output 36.2

## Input Give growth for this entry on OVCAR-8 ovarian: O=C1C=C(OCC=C(C(F)(F)F)C(F)(F)F)c2ccccc2C1=O
## Output -22.8

## Input Give growth for this entry on OVCAR-8 ovarian: O=C(Nc1cccc2[nH]c(C(F)(F)F)nc12)c1ccc(F)cc1
## Output 90.1
